Data origin: paper PMC9951844

tgt: SARS-CoV-2 Omicron BA.1 (B.1.1.529) RBD (SARS-CoV-2 Omicron BA.1 (B.1.1.529), strain)
property: binding result

Exercise: I would be grateful if you could share the reported binding result for YB12-267 (antibody, V domains shown) VH: KVQLVESGGGLIQPGGSLRLSCAASGLTVSSNYMNWVRQAPGKGLEWVSLIFSGGSTYYADSVKGRFTISRDYSKNTLYLQMNSLRAEDTAVYYCARDLMEVGGMDVWGQGTTVTVSS VL: QSVLTQPPSASGTPGQRVTISCSGSSSYIGSIYWYQQLPGAAPKLLVFSDHKRPSGVPDRFSGSKSGTSASLAISGLQSEDEAGYYCATWDDSLNGYVFGTGTKVTVL .
Key: binds

Exercise: Item: YB13-209 (antibody, V domains shown) VH: EVQLVESGGGLVKPGGSLKLSCAASGFSFVNAWMSWVRQAPGKGLEWVGRIKDKIDGGTTDYAAPVKGRFSISRDDSKNMLYLQMTSLKTEDTAVYYCTTGYNWHYGIEYWGQGTLVTVSS VL: DIQMTQSPSSLSASVGDRVTVTCRASQSINSYLNWYQQKPGKAPKLLIYAASSLQSGVPSRFSGSGSGTDFTLTISSLQAEDFATYYCQQSYSTPDTFGQGTKLEIK
Key: binds

Exercise: Entry YB9-120 (antibody, V domains shown) VH: QVQLQESGPGLVKPSGTLSLTCAVSGGSIRTTKWWSWVRQPPGKGLEWIGEIHHGGNTNYNPSLKSRVTISVDKSKNQFSLKLTSVTAADTAVYYCARDGGGVGTPLEYWGQGTLVTVSS VL: QSGLTQPASVSGSPGQSITISCTGTISDVGAYNYVSWYQQHPGRAPKVVIYDVSERPSGTSNRFSGSKSGNTASLTISGLQAEDEADYYCSSFTNTTPVVFGGGTKLTVL please
Key: binds
